Where do the numbers come from? From patent US5428182A.

- Tested target: Na^+ -dependent bile acid transport system (Oryctolagus cuniculus, UniProt Q28727)
- Construct: Brush border membrane vesicles from the intestinal cells of the small intestine were prepared by the so-called Mg^2+ precipitation method; from tissue; host or cells: terminal ileum (terminal 7/10 of small intestine) of male New Zealand rabbits, brush border membrane vesicles
- Sequence (Q28727 whole entry): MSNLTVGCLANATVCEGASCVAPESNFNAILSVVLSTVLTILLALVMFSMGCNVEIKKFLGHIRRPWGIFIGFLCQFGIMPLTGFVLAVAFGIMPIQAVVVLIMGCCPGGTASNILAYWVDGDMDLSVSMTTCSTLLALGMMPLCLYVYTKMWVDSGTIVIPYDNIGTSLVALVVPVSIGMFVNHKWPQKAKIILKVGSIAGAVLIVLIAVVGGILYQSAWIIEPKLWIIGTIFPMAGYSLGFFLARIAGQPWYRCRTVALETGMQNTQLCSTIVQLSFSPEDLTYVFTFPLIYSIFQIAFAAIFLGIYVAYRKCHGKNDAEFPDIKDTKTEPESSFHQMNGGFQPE
- Protocol notes: inhibition of Na+-dependent [3H]-taurocholate absorption in brush border membrane vesicles of rabbit ileum (membrane filtration technique)
- Type: biochemical
- Particulars: quotient of IC50 of the standard taurochenodeoxycholate (TCDC) and of the substance; 50 μM taurocholate, customarily 1 minute, pH 7.4
- Description: The biological testing of the compounds according to the invention was carried out by determining the inhibition of [^3 H]-taurocholate absorption in brush border membrane vesicles of the rabbit ileum. The inhibition test was carried out as follows: […] The absorption of substrates in the brush border membrane vesicles described above was determined by means of the so-called membrane filtration technique. […]
// IC50 (TCDC) / IC50 (Substance) lookup, one value per entry
When you answer, write just the number.

Looking up C[C@H](CCC(=O)O)[C@H]1CC[C@H]2[C@@H]3[C@H](O)C[C@@H]4C[C@@H](OCCCCCCNC(=O)[C@]5(C)C[C@](C)(C(=O)NCCCCCCO[C@H]6CC[C@@]7(C)[C@@H](C6)C[C@@H](O)[C@@H]6[C@@H]7C[C@H](O)[C@]7(C)[C@@H]([C@H](C)CCC(=O)O)CC[C@@H]67)C[C@](C)(C(=O)NCCCCCCO[C@H]6CC[C@@]7(C)[C@@H](C6)C[C@@H](O)[C@@H]6[C@@H]7C[C@H](O)[C@]7(C)[C@@H]([C@H](C)CCC(=O)O)CC[C@@H]67)C5)CC[C@]4(C)[C@H]3C[C@H](O)[C@]12C [Example 16] , I found its IC50 (TCDC) / IC50 (Substance) recorded as 0.37

Looking up C[C@H](CCC(=O)O)[C@H]1CC[C@H]2[C@@H]3[C@H](O)C[C@@H]4C[C@@H](NC(=O)[C@]5(C)C[C@](C)(C(=O)N[C@H]6CC[C@@]7(C)[C@@H](C6)C[C@@H](O)[C@@H]6[C@@H]7C[C@H](O)[C@]7(C)[C@@H]([C@H](C)CCC(=O)O)CC[C@@H]67)C[C@](C)(C(=O)N[C@H]6CC[C@@]7(C)[C@@H](C6)C[C@@H](O)[C@@H]6[C@@H]7C[C@H](O)[C@]7(C)[C@@H]([C@H](C)CCC(=O)O)CC[C@@H]67)C5)CC[C@]4(C)[C@H]3C[C@H](O)[C@]12C [Example 33] , I found its IC50 (TCDC) / IC50 (Substance) recorded as 0.77

In the following, a different compound is considered.
Looking up CC(CCC(=O)O)C1CCC2C3C(O)CC4CC(OCCNC(=O)C5C(C(=O)NCCOC6CCC7(C)C(C6)CC(O)C6C7CC(O)C7(C)C(C(C)CCC(=O)O)CCC67)C(C(=O)NCCOC6CCC7(C)C(C6)CC(O)C6C7CC(O)C7(C)C(C(C)CCC(=O)O)CCC67)C5C(=O)NCCOC5CCC6(C)C(C5)CC(O)C5C6CC(O)C6(C)C(C(C)CCC(=O)O)CCC56)CCC4(C)C3CC(O)C12C (stereo not drawn) [Example 47] , I found its IC50 (TCDC) / IC50 (Substance) recorded as 0.24
